Target: StITPK1 (Solanum tuberosum)
Sequence (A4H2J0 entry or part of it): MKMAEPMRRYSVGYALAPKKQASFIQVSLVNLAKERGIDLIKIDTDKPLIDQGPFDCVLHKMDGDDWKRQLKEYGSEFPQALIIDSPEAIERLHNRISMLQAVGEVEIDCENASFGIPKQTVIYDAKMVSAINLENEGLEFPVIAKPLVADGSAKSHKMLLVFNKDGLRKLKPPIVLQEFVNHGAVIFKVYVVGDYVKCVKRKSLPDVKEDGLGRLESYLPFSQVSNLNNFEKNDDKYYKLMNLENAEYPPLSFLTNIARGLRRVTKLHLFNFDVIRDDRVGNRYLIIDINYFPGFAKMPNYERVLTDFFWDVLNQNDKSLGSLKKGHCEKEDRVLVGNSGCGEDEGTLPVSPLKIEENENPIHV
Assay: Kinase assay with ATP, HPLC of products
Assay type: biochemical
Settings: 1 mM substrate, 12h, 25°C
1 if Product formation (12h) is below 20 μM/μM protein. -1 if not; exact matches included in -1.

As a guide, the following entries are already answered.
COMPOUND | ASSIGNED_CATEGORY
O=P(O)(O)CP(=O)(O)O[C@@H]1[C@H](OP(=O)(O)O)[C@H](OP(=O)(O)O)[C@@H](OP(=O)(O)O)[C@H](OP(=O)(O)O)[C@H]1OP(=O)(O)O | -1
O=P(O)(O)OC1C(OP(=O)(O)O)C(OP(=O)(O)O)C(OP(=O)(O)O)C(OP(=O)(O)O)C1OP(=O)(O)O [D-chiro-InsP6] | 1
O=P(O)(O)O[C@H]1[C@@H](OP(=O)(O)O)[C@H](OP(=O)(O)O)[C@@H](OP(=O)(O)OP(=O)(O)O)[C@H](OP(=O)(O)O)[C@H]1OP(=O)(O)O | 1
O=P(O)(O)CP(=O)(O)OC1C(OP(=O)(O)O)C(OP(=O)(O)O)C(OP(=O)(O)O)C(OP(=O)(O)O)C1OP(=O)(O)O (stereo not shown) [3-PCP-InsP5] | -1
O=P(O)(O)O[C@@H]1[C@@H](OP(=O)(O)O)[C@@H](OP(=O)(O)O)[C@@H](OP(=O)(O)OP(=O)(O)O)[C@H](OP(=O)(O)O)[C@H]1OP(=O)(O)O | -1

Now examine the next entry.
Qu. Is the reported Product formation (12h) for `O=C(O)CP(=O)(O)O[C@H]1[C@H](OP(=O)(O)O)[C@@H](OP(=O)(O)O)[C@@H](OP(=O)(O)O)[C@@H](OP(=O)(O)O)[C@@H]1OP(=O)(O)O` strictly below 20 μM/μM protein?
Ans. -1
